Each recorded value in this set is attributed to paper PMC7641318.

Test system: hADAR2-R2D (Fig. 2C, Fig. S4, Table S4) E488Q (human), P78563-2
Sequence: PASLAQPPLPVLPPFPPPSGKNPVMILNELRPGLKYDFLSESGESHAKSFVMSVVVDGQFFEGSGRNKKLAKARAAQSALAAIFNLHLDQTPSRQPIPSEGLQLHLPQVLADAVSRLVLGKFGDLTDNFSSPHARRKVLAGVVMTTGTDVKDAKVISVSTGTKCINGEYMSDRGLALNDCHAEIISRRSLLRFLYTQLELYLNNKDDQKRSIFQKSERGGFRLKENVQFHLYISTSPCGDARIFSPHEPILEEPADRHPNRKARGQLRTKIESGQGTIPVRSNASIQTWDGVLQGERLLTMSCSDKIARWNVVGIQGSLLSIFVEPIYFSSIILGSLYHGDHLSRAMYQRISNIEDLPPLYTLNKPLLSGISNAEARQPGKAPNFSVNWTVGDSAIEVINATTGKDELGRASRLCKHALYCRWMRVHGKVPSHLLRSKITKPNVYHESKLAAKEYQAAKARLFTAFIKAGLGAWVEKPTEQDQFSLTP
assay notes: EMSA
cond: N = 8-azanebularine at top position 13; EMSA: 20 mM Tris-HCl pH 7.0, 3.5% glycerol, 0.5% DTT, 60 mM KCl, 20 mM NaCl, 0.1 mM BME, 1.5 mM EDTA, 0.003% NP-40, 160 U/ml RNasin, 100 ug/ml BSA, 1 ug/ml …
Below, each entry is listed with its recorded Kd.

{"item sequence": "GCUCGCGAUGCUNGAGGGCUCUG / CAGAGCCCCCCAGCAUCGCGAGC [hGLI1-23 8AN]", "assay target": "hADAR2-R2D (Fig. 2C, Fig. S4, Table S4) E488Q (human), P78563-2", "Kd (nM)": 2.67}
{"item sequence": "GCUCGCGAUGCUNGAGGGCUCUGAUAGC / GCUAUCAGAGCCCCCCAGCAUCGCGAGC [hGLI1-28-3' 8AN (3' extended)]", "assay target": "hADAR2-R2D (Fig. 2C, Fig. S4, Table S4) E488Q (human), P78563-2", "Kd (nM)": 1.79}

###

Tested on: hADAR2-R2D (Fig. 2C, Fig. S4, Table S4) E488Q (human), P78563-2
Sequence: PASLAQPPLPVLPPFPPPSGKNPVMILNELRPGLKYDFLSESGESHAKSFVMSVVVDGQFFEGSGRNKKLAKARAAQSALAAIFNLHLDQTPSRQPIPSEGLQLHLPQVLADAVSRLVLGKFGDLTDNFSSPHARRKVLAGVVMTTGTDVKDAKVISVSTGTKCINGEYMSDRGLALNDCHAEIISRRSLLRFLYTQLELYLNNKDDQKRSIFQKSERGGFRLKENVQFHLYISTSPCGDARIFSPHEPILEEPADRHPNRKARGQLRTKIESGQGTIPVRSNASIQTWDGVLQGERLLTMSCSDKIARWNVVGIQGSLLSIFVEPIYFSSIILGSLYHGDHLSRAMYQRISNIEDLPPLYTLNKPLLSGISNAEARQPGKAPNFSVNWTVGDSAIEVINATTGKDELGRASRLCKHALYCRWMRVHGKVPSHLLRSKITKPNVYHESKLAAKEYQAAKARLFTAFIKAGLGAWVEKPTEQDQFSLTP
assay notes: EMSA
cond: N = 8-azanebularine at top position 18; EMSA: 20 mM Tris-HCl pH 7.0, 3.5% glycerol, 0.5% DTT, 60 mM KCl, 20 mM NaCl, 0.1 mM BME, 1.5 mM EDTA, 0.003% NP-40, 160 U/ml RNasin, 100 ug/ml BSA, 1 ug/ml …

{"item sequence": "GCAUAGCUCGCGAUGCUNGAGGGCUCUG / CAGAGCCCCCCAGCAUCGCGAGCUAUGC [hGLI1-28-5' 8AN (5' extended)]", "measurement units": "nM", "Kd": 1.31}
